Data provenance is the PolyMetriX glass transition set.

Each item that follows carries a reported glass transition temperature.

COMPOUND	glass transition temperature
*Oc1ccc(NC(=O)c2ccc3cc(C(=O)Nc4ccc(Oc5ccc(C6(c7ccc(*)cc7)C7CC8CC(C7)CC6C8)cc5)cc4)ccc3c2)cc1 (repeat unit)	266.00 °C
*CCCCCCOC(=O)OCCCCCCOC(=O)OCCCCCCOc1ccc(Oc2ccc(O*)cc2)cc1 (repeat unit)	-13.00 °C
*c1ccc(Nc2c(F)c(F)c(-c3c(F)c(F)c(Nc4ccc(S(*)(=O)=O)cc4)c(F)c3F)c(F)c2F)cc1 (repeat unit)	332.00 °C
*Nc1ccc(NC(=O)CCCC(*)=O)cc1 (repeat unit)	135.00 °C
*CCOCCOCCOc1ccc(/C=C(\C)c2ccc(O*)cc2)cc1 (repeat unit)	16.00 °C
*CC(O)COC(=O)/C=C/C(=O)Oc1ccc(C(C)(C)c2ccc(O*)cc2)cc1 (repeat unit)	32.00 °C
*C(=O)OCCOC(=O)c1ccc(C(=O)OCCOC(=O)N2CCN(*)CC2)cc1 (repeat unit)	53.00 °C
*CC(C)(C)C1C(=O)N(c2ccccc2)C(=O)C1* (repeat unit)	188.00 °C

* * *

Entries and their glass transition temperature values follow.

MOLECULE	glass transition temperature, °C
*CCC(=O)Nc1ccc(Oc2ccc(NC(=O)CCN3C(=O)c4ccc(C(=O)c5ccc6c(c5)C(=O)N(*)C6=O)cc4C3=O)cc2)cc1 (repeat unit)	232.00
*C(=O)c1ccc2c(c1)C(=O)N(c1c(C)cc(C(c3cc(C(F)(F)F)cc(C(F)(F)F)c3)c3cc(C)c(N4C(=O)c5ccc(*)cc5C4=O)c(C)c3)cc1C)C2=O (repeat unit)	301.10
*Oc1ccc(Oc2ccc(C(=O)c3cccc(-c4cccc(C(=O)c5ccc(*)cc5)c4)c3)cc2)cc1 (repeat unit)	154.00
*CC(*)C(=O)OCCOc1ccc(C(C)(C)c2ccc(OCCO)cc2)cc1 (repeat unit)	22.00
*CCC/C=C(/*)c1ccc(Cl)cc1 (repeat unit)	16.00

* * *

// values below are reported glass transition temperature
PROPERTY LABEL: glass transition temperature

MOLECULE	ENDPOINT VALUE
*NC(CCC(=O)OCc1ccc(C(F)(F)F)cc1)C(*)=O (repeat unit)	26.57 °C
*CCN(CCN1C(=O)c2ccc(C(c3ccc4c(c3)C(=O)N(*)C4=O)(C(F)(F)F)C(F)(F)F)cc2C1=O)c1ccc(/N=N/c2ccc(C#N)cc2)cc1 (repeat unit)	213.00 °C
*C(=O)c1cc2c(cc1Cl)C(=O)N(c1cc(Cl)c(N3C(=O)c4cc(*)c(Cl)cc4C3=O)cc1Cl)C2=O (repeat unit)	367.00 °C
*CC(*)OC(=O)c1ccc(OC)cc1 (repeat unit)	86.50 °C

* * *

COMPOUND	glass transition temperature / °C
*c1ccc(Oc2ccc(Oc3ccc(N4C(=O)c5ccc(-c6ccc7c(c6)C(=O)N(*)C7=O)cc5C4=O)cc3)cc2)cc1 (repeat unit)	278.00
*c1cc(C(c2ccc(OCCN(C)c3ccc(/C=C/C4=CC(=C(/C#N)C(=O)OC)/CC(C)(C)C4)cc3)c(N3C(=O)c4ccc(Oc5ccc6c(c5)C(=O)N(*)C6=O)cc4C3=O)c2)(C(F)(F)F)C(F)(F)F)ccc1OCCN(c1ccccc1)c1ccc(/C=C/C2=CC(=C(/C#N)C(=O)OC)/CC(C)(C)C2)cc1 (repeat unit)	207.00
